# protocol.text: soluble on expression in E. coli; label from the status in PepcDB or PDB records
reported.metric: soluble on expression in E. coli

MSLMPDKKGYIIDIDGVIGKSVTPIPEGVEGVKKLKELGKKIIFVSNNSTRSRRILLERLRSFGLEVGEDEILVATYATARFIAREKPNAKVFTTGEEGLIEELRLAGLEIVDYDEAEYLVVGSNRKINFELMTKALRACLRGIRYIATNPDRIFPAEDGPIPGTGMIIGALYWMTGREPDVVVGKPSEVIMREALDILGLDAKDVAVVGDQIDVDVAAGKAIGAETVLVLTGVTTRENLDQMIERHGLKPDYVFNSLKDMVEALEGEGHHHHHH :: soluble
MAHHHHHHMTVEDQVDHLLAPQRDGQENIQQRQEFNGFVHWGLLHGAHMVLEENQDTKRAHEFVNRYMRDIDLFEKWLEHPKVRAHIQKKFGIDMSAKFDKLMALTMAMYTRSKIQVYEDDPAGALKSLTASMSFITEGADLKKERHRKALGAVLVARGMIHCKLKSFHRADDDLTRALAFVKANRSATLYQLRAEAREALGHIDEARADEERAAQIWEEAEVITPGMDGAPRKFVT :: soluble

====

# protocol.text: soluble on expression in E. coli; label from the status in PepcDB or PDB records
reported.metric: soluble on expression in E. coli

MGSDKIHHHHHHMEKSYWEQAHLQLPLKYTWKISRNASTEKINVIVFLCIDGRTYPGEAAPNVRYGESVELIDLQFKHFQTVWKDSLLQDEHAYNDVLDGLKLCQSLRFALESAYVHARCDKDPAFFERYTGIKMHTSPLATSYTLPIMDPGQIQEFIQTHDLTRFDTLKIKTGKEESKELIKTASRYFDKMIRVDANEAWTDPDLLIKELEELKRIPLEFIEQPFESAQKDAYKYFKKYSKIPVIADESITFAPDLKEIKELFHGVNMKLMKAGGYREGANILLKSKELGLKTMVGCMVETTLGIRSGMWISGHSDYIDLDGSFVIDNEPFKLVSENLGRLVIKQVNFFIEKWQK :: not soluble
MAHHHHHHMEWVPCTEQTGSVGCREGHCATSLQEKSTGEEWVLVVGGYCEGERDGAVMAARADGLPMLRWVRLDKPNMTWFECDGASLTHVTGDTAYFFGGLNEHMNHSNQLLCLSLHQGQQGDLSLDVVKVETTGDVPLPRARHSAGSAGRYFVVFGGETEDAEQNNDGYILDTDTMVWTRIPTGHQVPNPRLLAGPLVFYSPHGCILYGGAHFVNGDIRSMSDVWNLHIPLGGTWFNVSYGDGAPACRFPRSNGHAGGVLGRVGGETVVVFVGGKDAAEGCDRVKQVQPPKSAEDKFHLRLVDPVLAGGEGPHWRYTPAAVDTRRGVLLLGGQCRHPQEVAAFLLKQTGVTLQR :: not soluble
VTQPSGLKNLLRAAAGALPVVPRTDQLPNRTVTVEELPIDPANVAAYAAVTGLRYGNQVPLTYPFALTFPSVMSLVTGFDFPFAAMGAIHTENHITQYRPIAVTDAVGVRVRAENLREHRRGLLVDLVTNVSVGNDVAWHQVTTFLHQQRTSLSGEPKPPPQKKPKLPPPAAVLRITPAKIRRYAAVGGDHNPIHTNPIAAKLFGFPTVIAHGMFTAAAVLANIEARFPDAVRYSVRFAKPVLLPATAGLYVAEGDGGWDLTLRNMAKGYPHLTATVRGL :: not soluble
MGSDKIHHHHHHMAANNTITFYDLALSTGATISPFVWATKYALKHKGFDLDVVPGGFTGILERTGGKTERLPAIVDDGEFVLDSWGIVEYLDAKYPDRPVLIPHESVAATLKALDNWFWNAAVGPWMFCFCQDYRDLSLPQDHEYVTHSREKMLGRKLEEVQAGREERLPKISAALEPLRAALAQHQWLGGSSPNYADYRIMGGILFTASVCKTPVLANDDPLRDWIERCLDLYGGLGRHPGLFPLFGLEQREGDPDLFNRAAGQGGIYKRNTGPESTRAETQRITEGMKK :: not soluble

====

# protocol.text: soluble on expression in E. coli; label from the status in PepcDB or PDB records
reported.metric: soluble on expression in E. coli

MNIRQAKTSDAAAIAPLFNQYREFYRQASDLQGAEAFLKARLENHESVILIAEENGEFIGFTQLYPTFSSVSMKRIYILNDLFVVPHARTKGAGGRLLSAAKDYAGQNGAKCLTLQTEHHNRKARSLYEQNGYEEDTGFVHYCLNVPAK :: soluble
MGSDKIHHHHHHMKVLVVDNSRWWGGAEKNLQTLVDNRSNAIEFNVLSDYPMSHNITYRDFCGVRYRFDNSYFIRYLDNKYQIKGMRIFRLIYKSLYLIPSLVRYNPDIVHFNLYRSSDILDIIVCKILRKKVVLHIRSLANRIKIAPLTIKLADAVICVSKSVKQGFSFTGNKYHVIYNGIDSKYYHLVPQDQAREKLGINLTSFVIGSIGNLEREKGHDVAVKALKKIIDDGNVVVALIIVGKDSTINESETKRILTLSKDLGVQGHIKIFSISHKDIHYVYSACDIVLTLCIDGEAFGMIPLEAAMHNRPVIATNVGACRETIIHNQTGLLCEPNSPVALVQAIDTIMKDKKYCDQLTESARNRVLHKYSADAYRDSVYKIYITITKENKRKL :: not soluble
MAEGGTPVVATKPPVDNAKMLGELKLRLMHTKKGLLAIRGELQRRAEIWGAAQEEITALEKMASDAKERIQKQSDQKREERKLAAQKRKELKQKQKEEKKEESKDEKDGADDEKNDEN :: not soluble
GPGSMVHSYGYKSGTRHLFAKKFRKHGAPSVSTILTNIKVGDYVDVVADSAVREGMPHKYYHGRTGIVWNVTPRGVGVIINKPVRTRTLRKRICVRFEHVRKSRCQEAFKAKEHQFQAYLAAKKAGKALPPLQKSSRLGGIVRPKTVEVLARRVADYEAMVPY :: not soluble
MRGSHHHHHHTDPALRANEFSILCRVLGSLYYRQPQDPLLVPLFTLIREGKLAANWPLEQDELLTRLQKSCDMTQVSADYNALFIGDECAVPPYRSAWVEGATEAEVRAFLSERGMPLADTPADHIGTLLLAASWLEDQSTEDESEALETLFSEYLLPWCGAFLGKVEAHATTPFWRTMAPLTRDAISAMWDELEEDSEEGLCGR :: soluble

====

# protocol.text: soluble on expression in E. coli; label from the status in PepcDB or PDB records
reported.metric: soluble on expression in E. coli

AHHHHHHASAKWVCKICGYIYDEDAGDPDNGISPGTKFEELPDDWVCPICGAPKSEFEKLEDGSRFIDSNVFLYAMIKPKGNTSKEILKKKEKAKKILLRVENGEDVVTTLIHLSEIANILEAKVNLTTAVRFLENLLLAENVKILPVSVEEYLKAVLISKEKGISVNDALAYLKMKELNIKEIYTFDRHFQNLDVEVIQD :: soluble
MGSDKIHHHHHHMRLEELVNNNYNKLNENDLHIWKYICCNKRECCTISIDELAKKCNISRTTISRFTQKLSLEGFGEFKVRLKLELGVSNNFKSSSVEDVYQDYYKTIKDMKEKDFLEICRMIYGAKHLFVYGTGAVQIAAANELKRHFISVNKFFVTVHGEAEMNMVLETATDEDLIVIISLSGEKKSAVEYLKKVKVKNIPSISITKLSDNSIARLCDENLYIITRNIKIEGVVTCENVGQYFILIEILFLKYITYLGQLKKEDTIS :: not soluble
MDGGADLYKPGEPGAMKKPKSVRQERILTELNQAPSLRVAELARRLDVSTETIRRDLDEMTEQGLLNRTYGGAVRSLSTEPSVTERHTLFVGERERIAKAAVQILKGAQVLMIGSGSTTVHTARRIAVEMKNITVLTHSFGVATVLAINPTIKVVMLPGDYHATEGATVGAHAVSFLNSFYADFTILGASGLGPDGPSDALLECGAVYSAMVSRAARTIVVADHSKHDRLFPARYAPWRDIAHVVTDKAPGEDLTESLDSSGVKLTVCLEHHHHHH :: soluble
MSKTLDGEPIECEIIDSLKLVNNTMDKIISRGYEKSAIYTPKAYGSVYRLSETNLLSKNEFKDNLLITFMAKKFKKLIRSEKPDLIIGTHPFPMIALSTLKKNFNLHNNESNAYTEHFYKHYTNTINVPPLISVLTDYTTHSTWIQNEIDYYIVGHEYVKELLVFDGVEPSKIRTFGIPLEHHHHHH :: not soluble
MGGSHHHHHHGMASALKEAMVQAEEAAAEITRKLEKQEKKRLKKEKKRLAALALASSENSSSTPEECEEMSEKPKKKKKQKPQEVPQENGMEDPSISFSKPKKKKSFSKEELMSSDLEETAGSTSIPKRKKSTPKEETVNDPEEAGHRSGSKKKRKFSKEEPVSSGPEEAVGKSSSKKKKKFHKASQED :: not soluble
MALLREYKEIAYQWGIWKTEESPEELLALLPDPERYEQQLTLFSSPHRKLEWLSVRVLLYQLLGEEKTIEYAPSGKPHLADSSYFISISHTRGYVAVILSPVSEVGIDIEQYGQRVHKVAHKYMRPDELISEYQGEDTWSLLLHWSAKEVMFKCMDTSEVDFREHLRIMPFQVCEHGEFPAEEYRTEHKKKFMIRYLLHPDFVMTWQVTSAYSVNECDIMKKMQ :: not soluble
